# measurement target: panel of more than 300 wild-type and mutant kinases (313 kinase panel) (Homo sapiens)
# assay notes: Kinase profiling in a biochemical assay panel (mobility shift assays and ELISA), %-inhibition at 1 μM; selectivity entropy
# condition summary: kinase NuaK2; 1 μM
observation type: %-inhibition of NuaK2
Just the number plus its unit, please.

Use these answered entries as a reference point.
// query Entry `CO[C@H]1C[C@@H]2CC[C@@H](C)[C@@](O)(O2)C(=O)C(=O)N2CCCC[C@H]2C(=O)O[C@H]([C@H](C)C[C@@H]2CC[C@@H](OC(=O)C(C)(CO)CO)[C@H](OC)C2)CC(=O)[C@H](C)/C=C(\C)[C@@H](O)[C@@H](OC)C(=O)[C@H](C)C[C@H](C)/C=C/C=C/C=C/1C` : reported %-inhibition of NuaK2 = ?
// result -5.44%

// query Entry `CS(=O)(=O)CCNCc1ccc(-c2ccc3ncnc(Nc4ccc(OCc5cccc(F)c5)c(Cl)c4)c3c2)o1` : reported %-inhibition of NuaK2 = ?
// result -1.19%

// query Entry COc1cc2nccc(Oc3ccc(NC(=O)C4(C(=O)Nc5ccc(F)cc5)CC4)cc3)c2cc1OC [cabozantinib] : reported %-inhibition of NuaK2 = ?
// result 1.63%

// query Entry `CC(C)(C)c1nc(-c2cccc(NS(=O)(=O)c3c(F)cccc3F)c2F)c(-c2ccnc(N)n2)s1` : reported %-inhibition of NuaK2 = ?
// result 4.53%

// query Entry `Cc1ccc(C(=O)Nc2ccc(CN3CCN(C)CC3)c(C(F)(F)F)c2)cc1C#Cc1cnc2cccnn12` : reported %-inhibition of NuaK2 = ?
// result -13%

Now for another entry.
// query Entry `COc1cc2c(Nc3ccc(Br)cc3F)ncnc2cc1OCC1CCN(C)CC1` : reported %-inhibition of NuaK2 = ?
// result -14%

----------
# measurement target: panel of more than 300 wild-type and mutant kinases (313 kinase panel) (Homo sapiens, UniProt P16234, T674I)
# Sequence (P16234 24-1089 T674I): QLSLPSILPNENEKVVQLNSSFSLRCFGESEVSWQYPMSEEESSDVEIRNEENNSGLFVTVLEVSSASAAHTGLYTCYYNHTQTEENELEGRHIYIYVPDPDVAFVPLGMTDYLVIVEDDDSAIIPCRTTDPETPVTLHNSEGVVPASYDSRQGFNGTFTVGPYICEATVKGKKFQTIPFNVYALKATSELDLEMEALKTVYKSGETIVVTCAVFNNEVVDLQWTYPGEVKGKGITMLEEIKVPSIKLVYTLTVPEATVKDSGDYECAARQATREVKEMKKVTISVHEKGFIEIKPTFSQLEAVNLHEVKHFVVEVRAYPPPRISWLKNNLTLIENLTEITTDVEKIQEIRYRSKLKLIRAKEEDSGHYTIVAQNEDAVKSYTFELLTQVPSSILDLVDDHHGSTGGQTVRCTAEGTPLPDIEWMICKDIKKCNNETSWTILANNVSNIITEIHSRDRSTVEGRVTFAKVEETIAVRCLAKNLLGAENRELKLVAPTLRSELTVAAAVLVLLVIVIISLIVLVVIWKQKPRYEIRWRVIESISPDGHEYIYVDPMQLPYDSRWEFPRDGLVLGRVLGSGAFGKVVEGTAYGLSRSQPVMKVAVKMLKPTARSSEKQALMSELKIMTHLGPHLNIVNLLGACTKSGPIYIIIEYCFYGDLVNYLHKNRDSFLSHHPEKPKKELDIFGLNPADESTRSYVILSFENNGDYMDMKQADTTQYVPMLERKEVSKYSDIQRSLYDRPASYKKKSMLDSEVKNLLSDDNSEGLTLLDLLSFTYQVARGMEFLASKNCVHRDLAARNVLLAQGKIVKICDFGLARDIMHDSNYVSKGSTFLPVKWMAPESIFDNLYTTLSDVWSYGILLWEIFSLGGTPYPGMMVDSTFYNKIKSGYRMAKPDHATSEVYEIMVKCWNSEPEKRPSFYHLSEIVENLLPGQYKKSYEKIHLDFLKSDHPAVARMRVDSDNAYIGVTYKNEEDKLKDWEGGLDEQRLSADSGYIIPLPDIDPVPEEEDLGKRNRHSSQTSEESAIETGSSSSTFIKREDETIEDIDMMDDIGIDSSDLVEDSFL
# assay notes: Kinase profiling in a biochemical assay panel (mobility shift assays and ELISA), %-inhibition at 1 μM; selectivity entropy
# condition summary: kinase PDGFRα(T674I); 1 μM
Can you tell me %-inhibition of PDGFRα(T674I) for the items I'm about to list?
Numbers only, in %.

// query Entry C[C@@H](Oc1cc(-c2cnn(C3CCNCC3)c2)cnc1N)c1c(Cl)ccc(F)c1Cl [crizotinib] : reported %-inhibition of PDGFRα(T674I) = ?
// result 95

// query Entry CNC(=O)c1cc(Oc2ccc(NC(=O)Nc3ccc(Cl)c(C(F)(F)F)c3)c(F)c2)ccn1 [regorafenib] : reported %-inhibition of PDGFRα(T674I) = ?
// result 92

// query Entry Cc1ccc(C(=O)Nc2ccc(CN3CCN(C)CC3)c(C(F)(F)F)c2)cc1C#Cc1cnc2cccnn12 [ponatinib] : reported %-inhibition of PDGFRα(T674I) = ?
// result 99

// query Entry COc1cc2nccc(Oc3ccc(NC(=O)C4(C(=O)Nc5ccc(F)cc5)CC4)cc3)c2cc1OC [cabozantinib] : reported %-inhibition of PDGFRα(T674I) = ?
// result 97

// query Entry CC(=O)Nc1cccc(-n2c(=O)n(C3CC3)c(=O)c3c(Nc4ccc(I)cc4F)n(C)c(=O)c(C)c32)c1 [trametinib] : reported %-inhibition of PDGFRα(T674I) = ?
// result -0.248

// query Entry COc1cc2c(Nc3ccc(Br)cc3F)ncnc2cc1OCC1CCN(C)CC1 [vandetanib] : reported %-inhibition of PDGFRα(T674I) = ?
// result 91

// query Entry CO[C@H]1C[C@@H]2CC[C@@H](C)[C@@](O)(O2)C(=O)C(=O)N2CCCC[C@H]2C(=O)O[C@H]([C@H](C)C[C@@H]2CC[C@@H](OC(=O)C(C)(CO)CO)[C@H](OC)C2)CC(=O)[C@H](C)/C=C(\C)[C@@H](O)[C@@H](OC)C(=O)[C@H](C)C[C@H](C)/C=C/C=C/C=C/1C [temsirolimus] : reported %-inhibition of PDGFRα(T674I) = ?
// result -2.73

// query Entry COc1cc(Nc2c(C#N)cnc3cc(OCCCN4CCN(C)CC4)c(OC)cc23)c(Cl)cc1Cl [bosutinib] : reported %-inhibition of PDGFRα(T674I) = ?
// result 57

Now for another entry.
// query Entry O=S(=O)(c1cccc2cnccc12)N1CCCNCC1 [fasudil] : reported %-inhibition of PDGFRα(T674I) = ?
// result 21

----------
# measurement target: panel of more than 300 wild-type and mutant kinases (313 kinase panel) (Homo sapiens)
# assay notes: Kinase profiling in a biochemical assay panel (mobility shift assays and ELISA), %-inhibition at 1 μM; selectivity entropy
# condition summary: kinase Haspin; compound at 1 μM
observation type: %-inhibition of Haspin (%)
Give bare numbers, in %.

// query Entry Cc1nc(Nc2ncc(C(=O)Nc3c(C)cccc3Cl)s2)cc(N2CCN(CCO)CC2)n1 [dasatinib] , system panel of more than 300 wild-type and mutant kinases (313 kinase panel) (Homo sapiens): what %-inhibition of Haspin was measured?
// result -13

// query Entry CCCS(=O)(=O)Nc1ccc(F)c(C(=O)c2c[nH]c3ncc(-c4ccc(Cl)cc4)cc23)c1F [vemurafenib] , system panel of more than 300 wild-type and mutant kinases (313 kinase panel) (Homo sapiens): what %-inhibition of Haspin was measured?
// result -3

// query Entry CNC(=O)c1cc(Oc2ccc(NC(=O)Nc3ccc(Cl)c(C(F)(F)F)c3)c(F)c2)ccn1 [regorafenib] , system panel of more than 300 wild-type and mutant kinases (313 kinase panel) (Homo sapiens): what %-inhibition of Haspin was measured?
// result -8

// query Entry O=S(=O)(c1cccc2cnccc12)N1CCCNCC1 [fasudil] , system panel of more than 300 wild-type and mutant kinases (313 kinase panel) (Homo sapiens): what %-inhibition of Haspin was measured?
// result 72

For each of the compounds below, note its %-inhibition of Haspin.
1. CC(=O)Nc1cccc(-n2c(=O)n(C3CC3)c(=O)c3c(Nc4ccc(I)cc4F)n(C)c(=O)c(C)c32)c1 [trametinib]
2. COc1cc2c(Nc3ccc(Br)cc3F)ncnc2cc1OCC1CCN(C)CC1 [vandetanib]
3. CS(=O)(=O)CCNCc1ccc(-c2ccc3ncnc(Nc4ccc(OCc5cccc(F)c5)c(Cl)c4)c3c2)o1 [lapatinib]
4. C[C@@H](Oc1cc(-c2cnn(C3CCNCC3)c2)cnc1N)c1c(Cl)ccc(F)c1Cl [crizotinib]
5. CC(C)(C)c1nc(-c2cccc(NS(=O)(=O)c3c(F)cccc3F)c2F)c(-c2ccnc(N)n2)s1 [dabrafenib]

// result
1. 5
2. -3.76
3. 3.3
4. 7
5. 9

----------
# measurement target: panel of more than 300 wild-type and mutant kinases (313 kinase panel) (Homo sapiens, UniProt Q13153)
# assay notes: Kinase profiling in a biochemical assay panel (mobility shift assays and ELISA), %-inhibition at 1 μM; selectivity entropy
# condition summary: kinase PAK1; 1 μM
observation type: %-inhibition of PAK1 (%)
Answers are plain numbers, in %.

// query Entry `CCCS(=O)(=O)Nc1ccc(F)c(C(=O)c2c[nH]c3ncc(-c4ccc(Cl)cc4)cc23)c1F` : reported %-inhibition of PAK1 = ?
// result -5

// query Entry `CO[C@H]1C[C@@H]2CC[C@@H](C)[C@@](O)(O2)C(=O)C(=O)N2CCCC[C@H]2C(=O)O[C@H]([C@H](C)C[C@@H]2CC[C@@H](OC(=O)C(C)(CO)CO)[C@H](OC)C2)CC(=O)[C@H](C)/C=C(\C)[C@@H](O)[C@@H](OC)C(=O)[C@H](C)C[C@H](C)/C=C/C=C/C=C/1C` : reported %-inhibition of PAK1 = ?
// result -3.8

// query Entry `CNC(=O)c1cc(Oc2ccc(NC(=O)Nc3ccc(Cl)c(C(F)(F)F)c3)c(F)c2)ccn1` : reported %-inhibition of PAK1 = ?
// result -8

// query Entry `N#CC[C@H](C1CCCC1)n1cc(-c2ncnc3[nH]ccc23)cn1` : reported %-inhibition of PAK1 = ?
// result -5.62

For each of the molecules below, note its %-inhibition of PAK1.
1. C[C@@H](Oc1cc(-c2cnn(C3CCNCC3)c2)cnc1N)c1c(Cl)ccc(F)c1Cl
2. COc1cc2c(Nc3ccc(Br)cc3F)ncnc2cc1OCC1CCN(C)CC1

// result
1. -4
2. -5.28

----------
# measurement target: panel of more than 300 wild-type and mutant kinases (313 kinase panel) (Homo sapiens, UniProt Q15759)
# assay notes: Kinase profiling in a biochemical assay panel (mobility shift assays and ELISA), %-inhibition at 1 μM; selectivity entropy
# condition summary: kinase p38β; 1 μM
observation type: %-inhibition of p38β

Use these answered entries as a reference point.
// query Entry COc1cc2c(Nc3ccc(Br)cc3F)ncnc2cc1OCC1CCN(C)CC1 [vandetanib] : reported %-inhibition of p38β = ?
// result 7%

// query Entry COc1cc(Nc2c(C#N)cnc3cc(OCCCN4CCN(C)CC4)c(OC)cc23)c(Cl)cc1Cl [bosutinib] : reported %-inhibition of p38β = ?
// result -0.299%

// query Entry Cc1cn(-c2cc(NC(=O)c3ccc(C)c(Nc4nccc(-c5cccnc5)n4)c3)cc(C(F)(F)F)c2)cn1 [nilotinib] : reported %-inhibition of p38β = ?
// result 96%

// query Entry CCCS(=O)(=O)Nc1ccc(F)c(C(=O)c2c[nH]c3ncc(-c4ccc(Cl)cc4)cc23)c1F [vemurafenib] : reported %-inhibition of p38β = ?
// result 24%

// query Entry CNC(=O)c1cc(Oc2ccc(NC(=O)Nc3ccc(Cl)c(C(F)(F)F)c3)c(F)c2)ccn1 [regorafenib] : reported %-inhibition of p38β = ?
// result 98%

// query Entry CC(C)(C)c1nc(-c2cccc(NS(=O)(=O)c3c(F)cccc3F)c2F)c(-c2ccnc(N)n2)s1 [dabrafenib] : reported %-inhibition of p38β = ?
// result 5.3%

// query Entry CS(=O)(=O)CCNCc1ccc(-c2ccc3ncnc(Nc4ccc(OCc5cccc(F)c5)c(Cl)c4)c3c2)o1 [lapatinib] : reported %-inhibition of p38β = ?
// result -10%

// query Entry Cc1ccc(Nc2nccc(N(C)c3ccc4c(C)n(C)nc4c3)n2)cc1S(N)(=O)=O [pazopanib] : reported %-inhibition of p38β = ?
// result 18%

For each of the molecules below, note its %-inhibition of p38β.
1. CO[C@H]1C[C@@H]2CC[C@@H](C)[C@@](O)(O2)C(=O)C(=O)N2CCCC[C@H]2C(=O)O[C@H]([C@H](C)C[C@@H]2CC[C@@H](OCCO)[C@H](OC)C2)CC(=O)[C@H](C)/C=C(\C)[C@@H](O)[C@@H](OC)C(=O)[C@H](C)C[C@H](C)/C=C/C=C/C=C/1C [everolimus]
2. Cc1ccc(C(=O)Nc2ccc(CN3CCN(C)CC3)c(C(F)(F)F)c2)cc1C#Cc1cnc2cccnn12 [ponatinib]
3. CO[C@H]1C[C@@H]2CC[C@@H](C)[C@@](O)(O2)C(=O)C(=O)N2CCCC[C@H]2C(=O)O[C@H]([C@H](C)C[C@@H]2CC[C@@H](OC(=O)C(C)(CO)CO)[C@H](OC)C2)CC(=O)[C@H](C)/C=C(\C)[C@@H](O)[C@@H](OC)C(=O)[C@H](C)C[C@H](C)/C=C/C=C/C=C/1C [temsirolimus]

// result
["-4.49%", "101%", "-2%"]

For each of the molecules below, note its %-inhibition of p38β.
1. COc1cc2nccc(Oc3ccc(NC(=O)C4(C(=O)Nc5ccc(F)cc5)CC4)cc3)c2cc1OC [cabozantinib]
2. O=S(=O)(c1cccc2cnccc12)N1CCCNCC1 [fasudil]
3. CC(=O)Nc1cccc(-n2c(=O)n(C3CC3)c(=O)c3c(Nc4ccc(I)cc4F)n(C)c(=O)c(C)c32)c1 [trametinib]

// result
["33%", "-2.17%", "2.31%"]
